Value source: paper PMC4982705

TESTED ON: SULT1B1 (hSULT1B1, wildtype) (Homo sapiens, UniProt O43704, E275K)
Sequence (O43704 whole entry E275K): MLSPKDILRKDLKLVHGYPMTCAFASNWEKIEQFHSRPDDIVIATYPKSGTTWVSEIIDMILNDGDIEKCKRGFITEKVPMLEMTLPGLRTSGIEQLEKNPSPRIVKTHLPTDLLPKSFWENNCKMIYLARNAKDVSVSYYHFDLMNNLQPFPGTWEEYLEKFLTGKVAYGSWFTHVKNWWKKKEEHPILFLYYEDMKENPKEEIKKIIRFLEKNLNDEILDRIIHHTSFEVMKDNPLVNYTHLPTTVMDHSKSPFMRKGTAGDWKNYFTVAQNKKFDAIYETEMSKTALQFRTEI
PROCEDURE DETAILS: intrinsic fluorescence titration
METRIC NAME: Kd
Quick note: number first, unit second.

For "Nc1ncnc2c1ncn2[C@@H]1O[C@H](COP(=O)(O)O)[C@@H](OP(=O)(O)O)[C@H]1O" , what is its reported Kd?
80 nM

###

TESTED ON: SULT1B1 (hSULT1B1, wildtype) (Homo sapiens, UniProt O43704, K266E)
Sequence (O43704 whole entry K266E): as the sequence (O43704 whole entry E275K) above, with K266E, K275E counted along it
PROCEDURE DETAILS: intrinsic fluorescence titration
METRIC NAME: pKd
Answer as the number alone; pKd is minus log10 of concentration in mol/L.

For "Nc1ncnc2c1ncn2[C@@H]1O[C@H](COP(=O)(O)O)[C@@H](OP(=O)(O)O)[C@H]1O" , what is its reported pKd?
5.83

###

TESTED ON: SULT1B1 (hSULT1B1, wildtype) (Homo sapiens, UniProt O43704, E275K/H109Y)
PROCEDURE DETAILS: intrinsic fluorescence titration
METRIC NAME: pKd
Answer as the number alone; pKd is minus log10 of concentration in mol/L.

Lab note: need pKd for "Nc1ncnc2c1ncn2[C@@H]1O[C@H](COP(=O)(O)O)[C@@H](OP(=O)(O)O)[C@H]1O" on SULT1B1 (hSULT1B1, wildtype) (Homo sapiens, UniProt O43704, E275K/H109Y), anyone have it?
6.18
